All values here come from ChEMBL document CHEMBL4619795.

Parameter: MIC. Scope: all listed entries.
System: Enterococcus
Assay: Antibacterial activity against Enterococcus 60 assessed as bacterial growth inhibition in presence of 50 ug/ml calcium ions by CLSI protocol based broth microdilution method
Assay type: functional

These recorded examples may help you get a feel for the data.
• CCCCCCCCCC(=O)N[C@@H](Cc1c[nH]c2ccccc12)C(=O)N[C@@H](CC(N)=O)C(=O)N[C@@H](CC(=O)O)C(=O)N[C@@H]1C(=O)NCC(=O)N[C@@H](CCCN)C(=O)N[C@@H](CCC(=O)O)C(=O)N[C@H](C)C(=O)N[C@@H](CCC(=O)O)C(=O)NCC(=O)N[C@H](CO)C(=O)N[C@@H]([C@@H](C)CC(=O)O)C(=O)N[C@@H](CC(=O)c2ccccc2N)C(=O)O[C@@H]1C = ≥ 32 µg/mL
• CCCCCCCCCC(=O)N[C@@H](Cc1c[nH]c2ccccc12)C(=O)N[C@@H](CC(N)=O)C(=O)N[C@@H](CC(=O)O)C(=O)N[C@@H]1C(=O)NCC(=O)N[C@@H](CCCN)C(=O)N[C@@H](CC(=O)O)C(=O)N[C@H](C)C(=O)N[C@@H](C(C)CC(=O)O)C(=O)NCC(=O)N[C@H](CO)C(=O)N[C@@H](C(C)CC(=O)O)C(=O)N[C@@H](CC(=O)c2ccccc2N)C(=O)O[C@@H]1C (single isomer, unassigned) = ≥ 32 µg/mL

Could you now look at the following compound, please?
// MIC lookup, compound = CCCCCCCCCC(=O)N[C@@H](Cc1c[nH]c2ccccc12)C(=O)N[C@@H](CC(N)=O)C(=O)N[C@@H](CC(=O)O)C(=O)N[C@@H]1C(=O)NCC(=O)N[C@@H](Cc2ccccc2)C(=O)N[C@@H](CC(=O)O)C(=O)N[C@H](C)C(=O)N[C@@H](CC(=O)O)C(=O)NCC(=O)N[C@H](CO)C(=O)N[C@@H]([C@@H](C)CC(=O)O)C(=O)N[C@@H](CC(=O)c2ccccc2N)C(=O)O[C@@H]1C , result: ≥ 32 µg/mL
